study-target: T1, human PD-L2 (full-length, on cells) (human, UniProt Q9BQ51 20-273)
T1 construct: whole, on cells; CHO-K1 cells stably expressing full-length human PD-L2; also endogenous on NCI-H226 and transfected in Jurkat cells; also called hPD-L2; CHO-K1/hPD-L2
T1 sequence (looked up): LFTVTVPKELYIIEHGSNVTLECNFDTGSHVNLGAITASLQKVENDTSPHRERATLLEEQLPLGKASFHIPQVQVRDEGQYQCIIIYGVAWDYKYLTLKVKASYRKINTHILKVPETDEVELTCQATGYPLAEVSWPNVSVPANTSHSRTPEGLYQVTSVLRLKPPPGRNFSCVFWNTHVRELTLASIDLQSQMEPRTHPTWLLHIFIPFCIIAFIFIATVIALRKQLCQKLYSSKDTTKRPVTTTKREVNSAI
protocol-description: hybridoma supernatant screen on cells expressing human PD-L2
observable: binding result

11C11-H5 (antibody, V domains shown, Both formats under this entry) VH: QVQLVESGGGVVQPGRSLRLSCAASGFAFSAYGMHWVRQAPGKGLEWVAISWYDGSNNYHADSVKGRFTISRDSSKNTLYLQMNSLRAEDTAVYYCAKSIGVARHYYYGMDVWGQGTTVTVSS VL: SYELTQPPSVSVSPGQTASITCSGEELGDKYACWYQQKPGQSPVLVIYQDSKRPSGIPERFSGSNSGNAATLTISGTQAMDEADYYCQAWDSITVVFGGGTKLTVLG	binds
